molecular target: EGFR on the surface of human tumour cells (A431, H292) (human, UniProt P00533 25-1210); experiment: cell-based or functional assay
OBSERVABLE: % inhibition of EGFR phosphorylation at 100 nM binder, cell-based assay (%)
The answer is to be given in %; state only the numeric part.

INSERT INTO assay_data (binder, reading_unit, recorded_number) VALUES
  ('E104 (designed binder) 10Fn3 domain: MGVSDVPRDLEVVAATPTSLLISWDAGAVTYQYYRITYGETGGNSPVQEFTVPHDLVTATISGLKPGVDYTITVYAVTDHKPHADGPHTYHEYPISINYRTEIDKPSQ', '%', 89.3);

// moving on: another record for % inhibition of EGFR phosphorylation at 100 nM binder, cell-based assay
**Q:** Which % inhibition of EGFR phosphorylation at 100 nM binder, cell-based assay is listed for E111 (designed binder) 10Fn3 domain: MGVSDVPRDLEVVAATPTSLLISWDAPTSRYQYYRITYGETGGNSPVQEFTVPHDLVTATISGLKPGVDYTITVYAVTNMMHVEYSEYPISINYRTEIDKPSQ ?
**A:** 85.5
